method: Quantitative High-Throughput drug screen in 47 multiple myeloma cell lines against the NCATS MIPE library collection: OCIMY7_PLB cell viability assay (AID 1918987); further: nearly all actives have a fitted effect of over 65% in size
measurement.conditions: OCI-MY7 myeloma viability, CellTiter-Glo ATP, 48 h
Inconclusive results are not listed. Calls of active or inactive are those of the source. The call rests on the fitted dose curve; in most records, active means well fitted cell-killing curve with a large enough effect; inconclusive means small, poorly fitted or top-dose-only effect, or effect the other way; inactive means no such curve, though single readings can be large or run the other way.
Possible outcomes: yes for active, no for inactive

compound: Clc1ccc(CCC(Cn2ccnc2)Sc2c(Cl)cccc2Cl)cc1 (stereo not given)
class.label: yes

compound: CC(C)OC(=O)C(C)(C)Oc1ccc(C(=O)c2ccc(Cl)cc2)cc1
class.label: no

compound: O=C(NCc1ccncc1)C12C[C@H]3C[C@@H](C1)CC(c1ccc(Cl)cc1)(C3)C2
class.label: yes

compound: O=C(Nc1ccccc1-c1cn2c(CN3CCNCC3)csc2n1)c1cnc2ccccc2n1
class.label: yes

compound: CS(=O)(=O)N(Cc1ccco1)CC(O)Cn1c2ccccc2c2ccccc21 (stereo not given)
class.label: yes

compound: COc1ccc2c3c1OC1C[C@@H](O)C=C[C@@]31CCN(C)C2 (stereo not given in full)
class.label: yes

compound: COC(=O)N[C@H](C(=O)N1CCC[C@@H]1c1ncc(-c2ccc(-c3ccc(-c4cnc([C@@H]5CCCN5C(=O)[C@@H](NC(=O)OC)C(C)C)[nH]4)cc3)cc2)[nH]1)C(C)C
class.label: yes

compound: C=C1C(=O)OC2C=C(C)CCC=C(C)CCC12 (stereo not given)
class.label: yes

compound: O=C(O)c1ccc(-c2c[nH]c3ncc(-c4ccccc4)cc23)cc1C1CCCC1
class.label: yes

compound: CCCCCN(C)CCC(O)(P(=O)(O)O)P(=O)(O)O
class.label: no
